Molecular target: T1, HLA-A*02:01 (peptide-receptive MHC class I molecule, heavy chain with β2m light chain) (human)
T1 construct: The UV-sensitive placeholder peptide is cleaved on irradiation and exchanged for the tested peptide
Experiment: UV-ligand exchange, anti-β2m ELISA; grade of peptide exchange yield (≥10% = +; ≥20% = ++; ≥50 = +++; ≥75% = ++++)
readout-name: peptide exchange yield

KMPEHISTV [peptide KMPEHISTV] = 50 to 75%
YIDGLESRV [peptide YIDGLESRV] = 50 to 75%
SLAWDVPAA [peptide SLAWDVPAA] = 50 to 75%
